- protocol summary: Moisture absorption of API at 40° C./75% RH (water by KF)
- Assay type: physicochemical
- assay setup: 3 Month
property measured: Water By KF

>>> readout_value("CCO[C@@H](Cc1ccc(OCCn2c(C)ccc2-c2ccc(SC)cc2)cc1)C(=O)O [API, Saroglitazar Magnesium]")
"2.57%"

----------
- protocol summary: Moisture absorption of API at 40° C./75% RH (water by KF)
- Assay type: physicochemical
- assay setup: Initial
property measured: Water By KF (%)

>>> readout_value("CCO[C@@H](Cc1ccc(OCCn2c(C)ccc2-c2ccc(SC)cc2)cc1)C(=O)O [API, Saroglitazar Magnesium]")
0.62

----------
- protocol summary: Moisture absorption of API at 40° C./75% RH (water by KF)
- Type: physicochemical
- assay setup: 1 Month
property measured: Water By KF (%)

>>> readout_value("CCO[C@@H](Cc1ccc(OCCn2c(C)ccc2-c2ccc(SC)cc2)cc1)C(=O)O [API, Saroglitazar Magnesium]")
1.17
